Reported pKd values are given for each entry in this list.
Target: T1, recombinant biotinylated rat PAR2 extracellular residues 1-75, N-terminal AviTag, C-terminal Flag and poly … (rat, UniProt Q63645 26-75, not fully specified; biotin on the AviTag (enzymatic biotinylation))
T1 construct: range 1-75; not shown: N-terminal AviTag (Avidity LLC); C-terminal Flag and poly Histidine tags
T1 chain (looked up): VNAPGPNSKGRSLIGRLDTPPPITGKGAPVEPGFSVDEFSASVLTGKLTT
Experiment: Biacore SPR 25 C, pH 6.0
For clarity, pKd is expressed as the negative log10 of concentration in mol/L.

Query: What value of measured pKd is listed for PaB670120 Fab (Fab, V domains shown, Fab; also called ZZ1RUC-C11) VH: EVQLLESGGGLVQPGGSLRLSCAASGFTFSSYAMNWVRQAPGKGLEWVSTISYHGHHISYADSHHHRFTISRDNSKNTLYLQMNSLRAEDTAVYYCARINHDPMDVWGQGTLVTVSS VL: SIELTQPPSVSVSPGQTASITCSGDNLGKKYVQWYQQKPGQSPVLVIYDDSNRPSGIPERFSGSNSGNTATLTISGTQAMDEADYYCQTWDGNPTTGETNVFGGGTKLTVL ?
Result: 7.47

Query: Then PaB670129 Fab (Fab, V domains shown, Fab; also called ZZ1RUE-F02) VH: EVQLLESGGGLVQPGGSLRLSCAASGFTFSSYAMNWVRQAPGKGLEWVSTISYHGSHISYHDSVHHRFTISRDNSKNTLYLQMNSLRAEDTAVYYCARIHHDPMDVWGQGTLVTVSS VL: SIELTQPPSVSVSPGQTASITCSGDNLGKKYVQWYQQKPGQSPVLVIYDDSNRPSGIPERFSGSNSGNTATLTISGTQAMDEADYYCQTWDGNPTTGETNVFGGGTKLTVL ?
Result: 7.24

Query: Then PaB670128 Fab (Fab, V domains shown, Fab; also called ZZ1RUE-A01) VH: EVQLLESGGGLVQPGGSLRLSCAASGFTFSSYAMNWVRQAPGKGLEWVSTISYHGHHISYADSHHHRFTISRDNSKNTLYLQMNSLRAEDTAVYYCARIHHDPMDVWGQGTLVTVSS VL: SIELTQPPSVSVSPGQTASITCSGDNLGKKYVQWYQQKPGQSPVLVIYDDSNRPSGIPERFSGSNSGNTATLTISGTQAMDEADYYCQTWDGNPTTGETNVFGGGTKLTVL ?
Result: 7.41

Query: Then PaB670103 Fab (Fab, V domains shown, Fab; also called ZZ1RCX-C09) VH: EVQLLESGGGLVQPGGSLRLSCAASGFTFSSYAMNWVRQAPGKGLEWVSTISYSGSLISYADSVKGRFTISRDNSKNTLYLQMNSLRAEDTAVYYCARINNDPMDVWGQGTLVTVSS VL: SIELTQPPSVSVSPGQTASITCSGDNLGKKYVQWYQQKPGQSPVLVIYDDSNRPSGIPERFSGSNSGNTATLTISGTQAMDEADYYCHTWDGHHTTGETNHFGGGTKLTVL ?
Result: 7.99

Query: Then Par0067 Fab (Fab, V domains shown, Fab; also called ZZ15D2-D02) VH: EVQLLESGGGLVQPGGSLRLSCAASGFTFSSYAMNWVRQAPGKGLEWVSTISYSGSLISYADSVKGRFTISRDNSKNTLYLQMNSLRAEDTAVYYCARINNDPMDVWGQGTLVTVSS VL: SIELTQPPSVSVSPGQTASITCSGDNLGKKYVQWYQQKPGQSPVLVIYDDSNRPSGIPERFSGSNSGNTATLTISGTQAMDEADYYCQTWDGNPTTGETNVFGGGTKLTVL ?
Result: 9.77
